Exercise: state measured SH2 binding enrichment for each of the sequences provided.
molecular target: Grb2 SH2 (UniProt P62993); assay: SH2 binding enrichment of the phosphorylated peptide, bacterial display (enrichment ratio); higher = better substrate or ligand; peptides without Tyr show the background;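 further: peptide library displayed on the E. coli surface as eCPX fusions, selected cells deep-sequenced, score is each peptide's frequency after selection divided by its frequency in the input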
Sequence (P62993 whole entry, looked up, the tested form may be a part): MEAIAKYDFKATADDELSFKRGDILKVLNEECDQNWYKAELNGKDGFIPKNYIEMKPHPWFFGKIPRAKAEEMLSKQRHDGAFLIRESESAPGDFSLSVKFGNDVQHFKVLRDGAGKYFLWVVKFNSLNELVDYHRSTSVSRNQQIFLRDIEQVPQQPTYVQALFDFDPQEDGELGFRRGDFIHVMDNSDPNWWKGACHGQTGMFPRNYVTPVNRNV

Recorded results for 8 sequences are shown here.
>  <sequence record>
TTPAVYARVAK [CTRB2_Y246]

>  <SH2 binding enrichment>
0.897

$$$$
>  <sequence record>
EGWQVYRLGAR [MISP_Y95]

>  <SH2 binding enrichment>
0.901

$$$$
>  <sequence record>
SVVVPFEPPEV [TP53_Y220_Y220F]

>  <SH2 binding enrichment>
0.807

$$$$
>  <sequence record>
FEEDPYLVVNP [MCM6_Y810_YF]

>  <SH2 binding enrichment>
0.769

$$$$
>  <sequence record>
DRLASYLEKVR [KRT13_Y118]

>  <SH2 binding enrichment>
0.93

$$$$
>  <sequence record>
AEYGLYGAMVR [VSX2_Y222]

>  <SH2 binding enrichment>
0.806

$$$$
>  <sequence record>
DSSIRYLQEIF [FGG_Y135_YF]

>  <SH2 binding enrichment>
0.856

$$$$
>  <sequence record>
SVDRDYVLKSA [HTATIP2_Y111_R106S]

>  <SH2 binding enrichment>
0.74

$$$$

// each listed sequence needs a value for SH2 binding enrichment
1. ITNLLYHLVGW [GBA_Y412_V414L]
2. VYAADYYKLLG [ROR2_Y645]
3. TENAGYFFRIS
4. KSMSVYCTPNK [ATP2A2_Y497]
5. RQQEVYLLFKQ [RARRES1_Y159_D158V_YF]

Result:
[1.72, 0.981, 0.753, 1.08, 1.34]

// each listed sequence needs a value for SH2 binding enrichment
1. VYYYSYLLKNH [PTEN_Y180]
2. SLNEEYTKNKT [MSH2_Y563]
3. HNVPIYEGYGL [ACTA1_Y168_A172G]
4. TSNQEYLDVSM [FGFR1_Y766_L769V]
5. LFSINYLHFGE [KDM4C_Y201_YF]

Result:
[0.965, 0.988, 0.755, 0.811, 1.38]

// each listed sequence needs a value for SH2 binding enrichment
1. LRAGVYPEKDQ [DNM2_Y626]
2. KNRDVYSSDFF [USP24_Y2134_YF]

Result:
1: 0.611; 2: 0.916
